protocol-details: Serum/plasma pharmacokinetics (half-life)
Assay type: in vivo
setup-conditions: in vivo; across species; read-out: half-life
Ends that are not written are not given here.
measured-endpoint: half-life

Exercise: Report measured half-life; entry is DGSVVVNKVSELPAGHGLNVNTLSYGDLAAD ['1104]
Key: 10 to 15 min

Ref: patent US20260115265A1
